- assay: Hemolysis assay with human erythrocytes
- Assay type: cell-based
- condition parameters: human, washed human erythrocyte suspension, pH 7.4; 10 µg/mL; read-out: degree of hemolysis
experimental endpoint: hemolysis at 10 µg/mL

Qu. Find the recorded hemolysis at 10 µg/mL belonging to CC(C)(C)N1C(=O)C(Cl)(Cl)C1c1ccccc1 (stereo not drawn) [Compound 1] and report it.
Ans. 0.01%

Qu. Param item = CC1CCN(C(C)(C)C)C(=O)C1(Cl)Cl (stereo not drawn) [Compound 9] ; retrieve measured hemolysis at 10 µg/mL.
Ans. 0.1%

Qu. hemolysis at 10 µg/mL lookup needed for CC(C)(C)N1CC(CCl)C(Cl)(Cl)C1=O (stereo not drawn) [Compound 2] , thanks.
Ans. 0.02%

Qu. What does the record list as hemolysis at 10 µg/mL for O=C1N(Cc2ccccc2)[C@H]2CCC[C@H](C2)C1(Cl)Cl [Compound 10] ?
Ans. 0.02%

Qu. Please report the recorded hemolysis at 10 µg/mL for CC(C)(C)N1C(=O)[C@@H](Cl)[C@@H]2CCCC[C@@H]21 [Compound 8] .
Ans. 0.1%

Qu. Which hemolysis at 10 µg/mL reading was recorded for the molecule CC(C)(C)N1C(=O)[C@@H](Cl)[C@@H]2[C@H](Cl)CCC[C@@H]21 [Compound 3] ?
Ans. 0.1%

----------
- assay: Hemolysis assay with human erythrocytes
- Format: cell-based
- condition parameters: human, washed human erythrocyte suspension, pH 7.4; 80 µg/mL; read-out: degree of hemolysis
experimental endpoint: hemolysis at 80 µg/mL

Qu. I'd like to know its hemolysis at 80 µg/mL. The molecule in question is CC1CCN(C(C)(C)C)C(=O)C1(Cl)Cl (stereo not shown)
Ans. ~0.7%

----------
- Tested on: A431 cell line (squamous cell carcinoma)
- assay: Cell viability, MTT assay, A431
- Assay type: cell-based
- condition parameters: Homo sapiens, A-431, 24 h, 24 h incubation, MTT endpoint, A431; read-out: IC50 (MTT) A431
For each of the molecules below, state its IC50.
Return type: number; implicit unit µg/mL.

Qu. So what does the record say about IC50 for `CC(C)(C)N1CC(C)(C)C(Cl)(Cl)C1=O` ?
Ans. 230

Qu. GET /values?readout=IC50&item= `CC(C)(C)N1C(=O)[C@@H](Cl)[C@@H]2CCCC[C@@H]21`
Ans. 250

Qu. What value of IC50 has been reported for the following molecule? `O=C1N(Cc2ccccc2)[C@H]2CCC[C@H](C2)C1(Cl)Cl`
Ans. 238

Qu. Given the entry CC1CCN(C(C)(C)C)C(=O)C1(Cl)Cl (stereo not shown) , report its measured IC50.
Ans. 243

Qu. Value lookup for IC50; key = C=C(Br)CN1CC(C)C(Cl)(Cl)C1=O (stereo not shown)
Ans. 250

Qu. Fill blank: measured IC50 of the molecule CC(C)(C)N1C(=O)C(Cl)(Cl)C1c1ccccc1 (stereo not shown) is ____.
Ans. 71

Qu. Fill in: IC50 of `CC(C)(C)N1C(=O)[C@@H](Cl)[C@@H]2[C@H](Cl)CCC[C@@H]21` is ___
Ans. 250

----------
- Test system: human erythrocytes
- assay: Hemolysis assay with human erythrocytes
- Type: cell-based
- condition parameters: from 10 to 80 µg/mL
experimental endpoint: change of hemolytic response as concentration increased

Known change of hemolytic response as concentration increased results, listed for orientation:
| compound | result |
| --- | --- |
| CC1CN(C(C)(C)C)C(=O)C1(Cl)Cl (stereo not drawn) | remained stable |
| CC(C)(C)N1CC(C)(C)C(Cl)(Cl)C1=O | remained stable |
| O=C1N(Cc2ccccc2)[C@H]2CCC[C@H](C2)C1(Cl)Cl | remained stable |
| CC(C)(C)N1C(=O)[C@@H](Cl)[C@@H]2CCCC[C@@H]21 | doubled |
| CC1CN(C2CCC(=O)CC2)C(=O)C1(Cl)Cl (stereo not drawn) | remained stable |
| CC(C)(C)N1C(=O)C(Cl)(Cl)C1c1ccccc1 (stereo not drawn) | remained stable |

Now for the compound whose change of hemolytic response as concentration increased we want.
Qu. Look up change of hemolytic response as concentration increased with human erythrocytes for this compound: `CC(C)(C)N1C(=O)[C@@H](Cl)[C@@H]2[C@H](Cl)CCC[C@@H]21`
Ans. doubled
